- tgt: Mitogen-activated protein kinase kinase kinase kinase 5 (Homo sapiens)
- Sequence (Q9Y4K4 whole entry): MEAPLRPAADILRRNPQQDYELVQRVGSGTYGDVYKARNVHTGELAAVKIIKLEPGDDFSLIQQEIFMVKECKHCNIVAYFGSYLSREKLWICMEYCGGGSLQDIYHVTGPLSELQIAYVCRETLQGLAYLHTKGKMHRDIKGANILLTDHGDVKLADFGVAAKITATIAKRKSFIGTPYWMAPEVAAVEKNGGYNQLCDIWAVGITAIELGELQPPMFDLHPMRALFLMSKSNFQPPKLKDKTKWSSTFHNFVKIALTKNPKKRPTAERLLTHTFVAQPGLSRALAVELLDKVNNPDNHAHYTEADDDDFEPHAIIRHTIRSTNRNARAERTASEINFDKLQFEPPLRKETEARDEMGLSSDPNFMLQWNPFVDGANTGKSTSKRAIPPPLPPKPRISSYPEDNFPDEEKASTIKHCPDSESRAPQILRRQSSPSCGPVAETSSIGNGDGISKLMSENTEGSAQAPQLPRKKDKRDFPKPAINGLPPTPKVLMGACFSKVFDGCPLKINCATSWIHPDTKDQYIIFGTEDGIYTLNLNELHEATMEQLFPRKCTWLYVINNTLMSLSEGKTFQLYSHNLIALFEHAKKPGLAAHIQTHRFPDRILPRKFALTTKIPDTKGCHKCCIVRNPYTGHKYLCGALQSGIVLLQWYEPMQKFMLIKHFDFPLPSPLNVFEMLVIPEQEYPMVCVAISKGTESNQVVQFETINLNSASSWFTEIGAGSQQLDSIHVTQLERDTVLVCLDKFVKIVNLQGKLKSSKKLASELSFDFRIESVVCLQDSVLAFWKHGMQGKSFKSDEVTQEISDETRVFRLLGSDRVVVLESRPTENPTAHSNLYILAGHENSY
Active and inactive are the calls of the source.
Write down the outcome that applies. Available outcomes: True (active), False (inactive)

Check out these entries, answers already filled in.
smilesRecord: Cn1ncc(Cl)c1-c1cc(C(=O)N[C@H](CN)Cc2cccc(F)c2)sc1Cl
category: False
//
smilesRecord: CC(=O)Nc1cccc(-n2c(=O)n(C3CC3)c(=O)c3c(Nc4ccc(I)cc4F)n(C)c(=O)c(C)c32)c1
category: False
//
smilesRecord: CNC(=O)c1ccc(C)c(-n2c(C)cc(OCc3ccc(F)cc3F)c(Br)c2=O)c1
category: False
//
smilesRecord: CNC(=O)c1cc(Oc2ccc(NC(=O)Nc3ccc(Cl)c(C(F)(F)F)c3)c(F)c2)ccn1
category: False
//
smilesRecord: COc1cc(CCc2cc(NC(=O)c3ccc(N4C[C@@H](C)N[C@@H](C)C4)cc3)n[nH]2)cc(OC)c1
category: True

Shift focus to the following entry.
Task: Hi, do you know how O=C(c1ccc(F)c(F)c1Nc1ccc(I)cc1F)N1CC(O)([C@@H]2CCCCN2)C1 came out in this test?
Result: False

----------
# Kd per entry for Cell division cycle 7-related protein kinase (Homo sapiens)
Active and inactive are the calls of the source.

Answered cases to consult:
compound: COc1cc(OC)c(/C=C/S(=O)(=O)Cc2ccc(OC)c(NCC(=O)O)c2)c(OC)c1 [RIGOSERTIB]
tgt: Cell division cycle 7-related protein kinase (Homo sapiens)
Sequence (O00311 whole entry): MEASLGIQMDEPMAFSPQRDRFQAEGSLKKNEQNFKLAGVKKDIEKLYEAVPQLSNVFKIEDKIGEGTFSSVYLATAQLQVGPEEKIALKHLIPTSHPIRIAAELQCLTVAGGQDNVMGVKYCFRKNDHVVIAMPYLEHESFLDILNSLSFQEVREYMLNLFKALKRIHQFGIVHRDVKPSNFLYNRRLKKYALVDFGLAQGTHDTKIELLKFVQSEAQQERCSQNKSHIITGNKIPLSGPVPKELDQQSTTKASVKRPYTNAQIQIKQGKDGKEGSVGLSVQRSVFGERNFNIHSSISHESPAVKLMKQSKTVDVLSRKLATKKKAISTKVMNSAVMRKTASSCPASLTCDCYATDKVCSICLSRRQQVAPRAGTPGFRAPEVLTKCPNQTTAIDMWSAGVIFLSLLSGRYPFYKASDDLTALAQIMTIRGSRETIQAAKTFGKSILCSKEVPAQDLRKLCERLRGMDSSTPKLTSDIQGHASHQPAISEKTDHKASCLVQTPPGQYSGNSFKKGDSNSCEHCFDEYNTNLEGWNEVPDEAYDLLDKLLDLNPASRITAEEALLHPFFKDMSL
Kd: > 30 µM (inactive)
//
compound: O=C(Nc1ccc(-c2ccnc(Nc3ccc(N4CCOCC4)cc3)n2)cc1)C1CCCN1 (stereo not drawn) [XL-019]
tgt: Cell division cycle 7-related protein kinase (Homo sapiens)
Kd: > 30 µM (inactive)
//
compound: Cn1cc(-c2ccc3nnc(C(F)(F)c4ccc5ncccc5c4)n3n2)cn1 [JNJ-38877605]
tgt: Cell division cycle 7-related protein kinase (Homo sapiens)
Kd: > 30 µM (inactive)

Param item: O=C1NC(=O)/C(=C/c2ccc3nccc(-c4ccncc4)c3c2)S1 [GSK-1059615] ; param system: Cell division cycle 7-related protein kinase (Homo sapiens); output Kd: > 30 µM (inactive)

Param item: CN1N=C(N)c2cn([C@@H]3O[C@H](COP(=O)(O)O)[C@@H](O)[C@H]3O)c3ncnc1c23 [TRICIRIBINE PHOSPHATE] ; param system: Cell division cycle 7-related protein kinase (Homo sapiens); output Kd: > 30 µM (inactive)

Param item: CNC(=O)CN1CCC(Oc2cc3c(Nc4cccc(Cl)c4F)ncnc3cc2OC)CC1 [SAPITINIB] ; param system: Cell division cycle 7-related protein kinase (Homo sapiens); output Kd: > 30 µM (inactive)

Param item: COC(=O)N[C@@H](C)CNc1nccc(-c2cn(C(C)C)nc2-c2cc(Cl)cc(NS(C)(=O)=O)c2F)n1 [ENCORAFENIB] ; param system: Cell division cycle 7-related protein kinase (Homo sapiens); output Kd: > 30 µM (inactive)

Param item: C[C@@H](Nc1cc(F)cc(F)c1)c1cc(C(=O)N(C)C)cc2c(=O)cc(N3CCOCC3)oc12 [AZD-8186] ; param system: Cell division cycle 7-related protein kinase (Homo sapiens); output Kd: > 30 µM (inactive)

----------
Activity calls are given as the source filed them.
# Kd per entry for Mitogen-activated protein kinase kinase kinase kinase 2 (Homo sapiens, UniProt Q12851)

Answered cases to consult:
smilesRecord: O=C(O)[C@]1(Cc2cccc(Nc3nccs3)n2)CC[C@@H](Oc2cccc(Cl)c2F)CC1
measuredEndpoint: Kd
result: 1.85 µM (active)
--
smilesRecord: O=c1sn(-c2cccc3ccccc23)c(=O)n1Cc1ccccc1
measuredEndpoint: Kd
result: > 30 µM (inactive)
--
smilesRecord: COCCNCc1ccc(-c2cc3nccc(Oc4ccc(NC(=S)NC(=O)Cc5ccc(F)cc5)cc4F)c3s2)nc1
measuredEndpoint: Kd
result: > 30 µM (inactive)

// switching to the query compound
The compound listed as CN1CCC(CNc2ccc3ncc(-c4cccc(OC(F)(F)F)c4)n3n2)CC1 has a reported Kd of > 30 µM (inactive)

----------
- tgt: Tyrosine-protein kinase ABL2 (Homo sapiens)
- Sequence (P42684 whole entry): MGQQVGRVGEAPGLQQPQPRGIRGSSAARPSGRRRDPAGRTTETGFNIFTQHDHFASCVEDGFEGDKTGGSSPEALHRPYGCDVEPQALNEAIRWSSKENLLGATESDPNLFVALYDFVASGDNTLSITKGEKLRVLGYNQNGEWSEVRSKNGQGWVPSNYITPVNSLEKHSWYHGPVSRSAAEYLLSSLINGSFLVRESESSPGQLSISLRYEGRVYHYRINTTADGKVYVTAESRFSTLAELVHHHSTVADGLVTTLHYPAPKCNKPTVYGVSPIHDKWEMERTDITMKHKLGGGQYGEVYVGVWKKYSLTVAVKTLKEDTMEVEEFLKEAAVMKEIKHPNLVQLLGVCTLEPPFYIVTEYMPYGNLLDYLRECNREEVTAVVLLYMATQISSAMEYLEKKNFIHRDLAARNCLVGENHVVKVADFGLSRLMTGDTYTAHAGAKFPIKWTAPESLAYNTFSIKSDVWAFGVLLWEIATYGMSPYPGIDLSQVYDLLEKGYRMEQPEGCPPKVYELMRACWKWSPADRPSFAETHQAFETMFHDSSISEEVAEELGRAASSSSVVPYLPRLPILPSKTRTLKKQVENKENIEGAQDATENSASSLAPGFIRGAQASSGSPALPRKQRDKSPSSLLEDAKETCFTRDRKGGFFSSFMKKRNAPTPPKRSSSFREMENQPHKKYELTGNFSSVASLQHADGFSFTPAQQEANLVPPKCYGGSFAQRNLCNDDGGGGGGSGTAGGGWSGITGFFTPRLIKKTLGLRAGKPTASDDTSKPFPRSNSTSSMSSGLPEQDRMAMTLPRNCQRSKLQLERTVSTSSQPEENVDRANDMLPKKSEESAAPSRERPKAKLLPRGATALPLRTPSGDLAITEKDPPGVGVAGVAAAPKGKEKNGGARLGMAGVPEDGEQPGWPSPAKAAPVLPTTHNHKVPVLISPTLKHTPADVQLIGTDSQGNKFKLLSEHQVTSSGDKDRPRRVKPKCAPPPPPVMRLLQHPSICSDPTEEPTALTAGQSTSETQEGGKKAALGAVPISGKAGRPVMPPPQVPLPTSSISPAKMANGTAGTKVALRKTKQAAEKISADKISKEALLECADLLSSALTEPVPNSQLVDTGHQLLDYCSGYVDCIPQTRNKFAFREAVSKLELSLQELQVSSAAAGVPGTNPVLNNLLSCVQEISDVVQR
Activity calls are given as the source filed them.
Write down the outcome that applies. Available outcomes: 1 (yes) (active), 0 (no) (inactive)

Check out these entries, answers already filled in.
molecule: CCS(=O)(=O)N1CC(CC#N)(n2cc(-c3ncnc4[nH]ccc34)cn2)C1
tgt: Tyrosine-protein kinase ABL2 (Homo sapiens)
category: 0 (no)
--
molecule: CCc1cnn2c(NCc3ccc[n+]([O-])c3)cc(N3CCCC[C@H]3CCO)nc12
tgt: Tyrosine-protein kinase ABL2 (Homo sapiens)
category: 0 (no)
--
molecule: Cc1cc([C@@H](C)Nc2ccccc2C(=O)O)c2nc(N3CCOCC3)cc(=O)n2c1
tgt: Tyrosine-protein kinase ABL2 (Homo sapiens)
category: 0 (no)

Task: Hi, do you know how COc1cc2nccc(Oc3ccc(NC(=O)Nc4cc(C)on4)c(Cl)c3)c2cc1OC came out in this test?
Result: 1 (yes)

Task: Hi, do you know how CN1N=C(N)c2cn([C@@H]3O[C@H](COP(=O)(O)O)[C@@H](O)[C@H]3O)c3ncnc1c23 [TRICIRIBINE PHOSPHATE] came out in this test?
Result: 0 (no)

Task: Hi, do you know how CCN1CCN(Cc2ccc(-c3cc4c(N[C@H](C)c5ccccc5)ncnc4[nH]3)cc2)CC1 came out in this test?
Result: 1 (yes)

Task: Hi, do you know how CN(C)C(=O)c1cc2cnc(Nc3ccc(N4CCNCC4)cn3)nc2n1C1CCCC1 came out in this test?
Result: 0 (no)

----------
- tgt: UniProtKB O75116
- Sequence (O75116 whole entry): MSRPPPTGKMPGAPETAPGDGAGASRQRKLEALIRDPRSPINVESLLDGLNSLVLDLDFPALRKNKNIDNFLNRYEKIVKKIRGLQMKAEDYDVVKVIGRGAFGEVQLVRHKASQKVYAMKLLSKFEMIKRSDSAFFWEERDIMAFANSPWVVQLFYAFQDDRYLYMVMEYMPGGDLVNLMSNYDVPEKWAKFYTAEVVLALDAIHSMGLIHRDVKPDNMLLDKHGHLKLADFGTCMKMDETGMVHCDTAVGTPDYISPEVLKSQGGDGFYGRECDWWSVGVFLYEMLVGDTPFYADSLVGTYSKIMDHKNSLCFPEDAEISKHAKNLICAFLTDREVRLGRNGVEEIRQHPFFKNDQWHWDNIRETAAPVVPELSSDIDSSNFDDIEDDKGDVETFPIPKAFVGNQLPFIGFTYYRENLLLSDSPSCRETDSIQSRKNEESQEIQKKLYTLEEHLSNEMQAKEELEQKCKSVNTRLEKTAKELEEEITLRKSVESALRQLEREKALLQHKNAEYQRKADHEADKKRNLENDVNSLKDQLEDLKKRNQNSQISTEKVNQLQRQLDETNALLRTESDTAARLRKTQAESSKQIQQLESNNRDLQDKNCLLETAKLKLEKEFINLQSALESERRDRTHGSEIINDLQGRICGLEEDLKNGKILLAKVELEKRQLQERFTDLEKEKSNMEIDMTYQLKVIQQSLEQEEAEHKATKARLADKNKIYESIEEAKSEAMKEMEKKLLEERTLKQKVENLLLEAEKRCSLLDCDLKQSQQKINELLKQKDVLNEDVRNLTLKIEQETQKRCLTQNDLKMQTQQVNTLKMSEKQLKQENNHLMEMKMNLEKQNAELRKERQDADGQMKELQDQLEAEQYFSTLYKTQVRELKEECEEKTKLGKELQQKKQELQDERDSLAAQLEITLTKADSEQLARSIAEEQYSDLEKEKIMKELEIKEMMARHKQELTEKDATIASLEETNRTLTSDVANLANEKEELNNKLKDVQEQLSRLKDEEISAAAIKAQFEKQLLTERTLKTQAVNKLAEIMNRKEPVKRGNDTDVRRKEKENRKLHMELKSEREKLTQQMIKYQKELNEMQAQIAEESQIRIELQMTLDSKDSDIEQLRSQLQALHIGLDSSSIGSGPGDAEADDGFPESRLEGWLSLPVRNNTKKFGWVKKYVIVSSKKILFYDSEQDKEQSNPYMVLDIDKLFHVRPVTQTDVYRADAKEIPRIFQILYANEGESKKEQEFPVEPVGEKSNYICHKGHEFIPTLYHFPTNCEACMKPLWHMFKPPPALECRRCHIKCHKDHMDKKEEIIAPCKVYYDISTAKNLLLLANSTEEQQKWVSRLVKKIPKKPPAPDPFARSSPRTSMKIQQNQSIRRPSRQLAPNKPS
Active and inactive are the calls of the source.
Write down the outcome that applies. Available outcomes: 1.0 = active, 0.0 = inactive

Check out these entries, answers already filled in.
compound: CNC(=O)CN1CCC(Oc2cc3c(Nc4cccc(Cl)c4F)ncnc3cc2OC)CC1 [SAPITINIB]
category: 0.0
//
compound: Cc1cc([C@@H](C)Nc2ccccc2C(=O)O)c2nc(N3CCOCC3)cc(=O)n2c1 [AZD-6482]
category: 0.0

Task: Hi, do you know how CC[C@@H]1C(=O)N(C)c2cnc(Nc3ccc(C(=O)N[C@H]4CC[C@H](N5CCN(CC6CC6)CC5)CC4)cc3OC)nc2N1C(C)C [VOLASERTIB] came out in this test?
Result: 0.0

Task: Hi, do you know how CCN1CCN(Cc2ccc(-c3cc4c(N[C@H](C)c5ccccc5)ncnc4[nH]3)cc2)CC1 [AEE-788] came out in this test?
Result: 0.0

Task: Hi, do you know how CCS(=O)(=O)N1CC(CC#N)(n2cc(-c3ncnc4[nH]ccc34)cn2)C1 [BARICITINIB] came out in this test?
Result: 1.0

Task: Hi, do you know how C[C@@H]1CN(Cc2ccc(F)cc2)[C@@H](C)CN1C(=O)c1cc2c(C(=O)C(=O)N(C)C)cn(C)c2cc1Cl [TALMAPIMOD] came out in this test?
Result: 0.0

Task: Hi, do you know how COc1cc(CCc2cc(NC(=O)c3ccc(N4C[C@@H](C)N[C@@H](C)C4)cc3)n[nH]2)cc(OC)c1 [AZD-4547] came out in this test?
Result: 0.0

Task: Hi, do you know how CCn1c(=O)c(-c2cc[nH]n2)cc2c(C)nc(N)nc21 [VOXTALISIB] came out in this test?
Result: 0.0

Task: Hi, do you know how CCCS(=O)(=O)Nc1ccc(F)c(C(=O)c2c[nH]c3ncc(-c4ccc(Cl)cc4)cc23)c1F [VEMURAFENIB] came out in this test?
Result: 0.0

Task: Hi, do you know how O=C(O)[C@]1(Cc2cccc(Nc3nccs3)n2)CC[C@@H](Oc2cccc(Cl)c2F)CC1 [MK-5108] came out in this test?
Result: 0.0

Task: Hi, do you know how O=c1sn(-c2cccc3ccccc23)c(=O)n1Cc1ccccc1 [TIDEGLUSIB] came out in this test?
Result: 0.0

Task: Hi, do you know how Cc1cc(-c2cc(O)ccc2Cl)cc2nnc(Nc3ccc(OCCN4CCCC4)cc3)nc12 came out in this test?
Result: 0.0

Task: Hi, do you know how CO[C@H]1C[C@@H]2CC[C@@H](C)[C@@](O)(O2)C(=O)C(=O)N2CCCC[C@H]2C(=O)O[C@H]([C@H](C)C[C@@H]2CC[C@@H](OCCO)[C@H](OC)C2)CC(=O)[C@H](C)/C=C(\C)[C@@H](O)[C@@H](OC)C(=O)[C@H](C)C[C@H](C)/C=C/C=C/C=C/1C [EVEROLIMUS] came out in this test?
Result: 0.0

Task: Hi, do you know how O=C(Nc1ccc(-c2ccnc(Nc3ccc(N4CCOCC4)cc3)n2)cc1)C1CCCN1 (stereo not given) [XL-019] came out in this test?
Result: 1.0

Task: Hi, do you know how COC(=O)[C@@]1(O)C[C@H]2O[C@]1(C)n1c3ccccc3c3c4c(c5c6ccccc6n2c5c31)C(=O)NC4 [K-252A] came out in this test?
Result: 0.0

Task: Hi, do you know how COC(=O)N[C@@H](C)CNc1nccc(-c2cn(C(C)C)nc2-c2cc(Cl)cc(NS(C)(=O)=O)c2F)n1 [ENCORAFENIB] came out in this test?
Result: 0.0

Task: Hi, do you know how CN1N=C(N)c2cn([C@@H]3O[C@H](COP(=O)(O)O)[C@@H](O)[C@H]3O)c3ncnc1c23 [TRICIRIBINE PHOSPHATE] came out in this test?
Result: 0.0

Task: Hi, do you know how C1=C/COCc2cc(ccc2OCCN2CCCC2)Nc2nccc(n2)-c2cccc(c2)COC/1 [PACRITINIB] came out in this test?
Result: 0.0

Task: Hi, do you know how CC(=O)Nc1cccc(-n2c(=O)n(C3CC3)c(=O)c3c(Nc4ccc(I)cc4F)n(C)c(=O)c(C)c32)c1 [TRAMETINIB] came out in this test?
Result: 0.0

Task: Hi, do you know how Cc1ccc(S(=O)(=O)Nc2nc3ccccc3nc2Nc2ccc3nsnc3c2)cc1 came out in this test?
Result: 0.0
